Data origin: ChEMBL document CHEMBL1909046

# MEASURED ON: Alpha-1A adrenergic receptor (Rattus norvegicus, UniProt P43140)
# Sequence (P43140 whole entry): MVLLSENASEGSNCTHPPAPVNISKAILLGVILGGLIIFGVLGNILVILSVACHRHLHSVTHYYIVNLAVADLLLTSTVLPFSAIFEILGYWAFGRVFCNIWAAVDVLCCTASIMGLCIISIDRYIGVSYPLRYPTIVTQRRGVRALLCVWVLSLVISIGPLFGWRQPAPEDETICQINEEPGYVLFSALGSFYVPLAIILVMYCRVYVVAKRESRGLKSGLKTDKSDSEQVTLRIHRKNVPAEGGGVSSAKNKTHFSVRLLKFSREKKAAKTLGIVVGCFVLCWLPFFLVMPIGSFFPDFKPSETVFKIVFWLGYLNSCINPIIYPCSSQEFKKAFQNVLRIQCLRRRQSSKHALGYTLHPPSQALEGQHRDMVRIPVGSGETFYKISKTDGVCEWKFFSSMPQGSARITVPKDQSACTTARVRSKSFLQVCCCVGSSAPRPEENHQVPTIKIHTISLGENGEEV
# TEST METHOD NOTES: DRUGMATRIX: Alpha-1A adrenergic receptor radioligand binding (ligand: prazosin)
# Format: cell membranes, Wistar, Submaxillary gland, Membrane
# CONDITION SET: Not Active = under 50% inhibition at 10 µM
PROPERTY LABEL: IC50

The examples below pair each entry with its known result.
N#C[C@H](O[C@@H]1O[C@H](CO[C@@H]2O[C@H](CO)[C@@H](O)[C@H](O)[C@H]2O)[C@@H](O)[C@H](O)[C@H]1O)c1ccccc1    Not Active
CN(C)[C@@H]1C(O)=C(C(N)=O)C(=O)[C@@]2(O)C(O)=C3C(=O)c4c(O)cccc4[C@@](C)(O)[C@H]3[C@H](O)[C@@H]12    Not Active
COC1=CC(=O)C[C@@H](C)[C@]12Oc1c(Cl)c(OC)cc(OC)c1C2=O    Not Active
C/C=C1\[C@H]2C=C(C)C[C@]1(N)c1ccc(=O)[nH]c1C2    Not Active

Ask: Write down the reported IC50 of CC1(C)S[C@@H]2[C@H](NC(=O)[C@H](NC(=O)N3CCNC3=O)c3ccccc3)C(=O)N2[C@H]1C(=O)O , test system: Alpha-1A adrenergic receptor (Rattus norvegicus, UniProt P43140).
Reply: Not Active

Ask: What value of IC50 on Alpha-1A adrenergic receptor (Rattus norvegicus, UniProt P43140) does Cc1cc(NS(=O)(=O)c2ccc(N)cc2)no1 have?
Reply: Not Active

Ask: # get_value(readout= IC50, system= Alpha-1A adrenergic receptor (Rattus norvegicus, UniProt P43140)) for O=C1CCc2cc(OCCCCc3nnnn3C3CCCCC3)ccc2N1
Reply: Not Active
